molecular target: Lysophosphatidic acid receptor 2 (Homo sapiens, UniProt Q9HBW0); assay: Agonistic activity against lysophosphatidic acid receptor 2 using [35S]GTP-gamma-S as radioligand tested in vitro
Sequence (Q9HBW0 whole entry): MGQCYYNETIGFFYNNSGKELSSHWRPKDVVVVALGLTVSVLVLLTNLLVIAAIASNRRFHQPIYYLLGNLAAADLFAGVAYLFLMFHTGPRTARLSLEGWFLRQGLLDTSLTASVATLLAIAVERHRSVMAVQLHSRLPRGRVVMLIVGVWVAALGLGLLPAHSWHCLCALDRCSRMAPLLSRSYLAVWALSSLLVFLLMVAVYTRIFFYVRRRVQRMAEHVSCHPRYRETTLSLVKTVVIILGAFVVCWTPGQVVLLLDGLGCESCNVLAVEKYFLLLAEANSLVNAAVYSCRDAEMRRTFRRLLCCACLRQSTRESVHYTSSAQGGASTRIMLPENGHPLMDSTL
pEC50: −log10 of the molar value.
assay endpoint: pEC50

Some entries whose results are on file:
Task item: Give pEC50 for the following compound: "CCCCCCCC/C=C\CCCCCCCC(=O)NCCCP(=O)(O)O"
Reply: < 5.30

Task item: Give pEC50 for the following compound: "CCCCCCCC/C=C\CCCCCCCC(=O)NCCC(=S)P(=O)(O)O"
Reply: < 5.30

Proceed to the following item.
Task item: Give pEC50 for the following compound: "CCCCCCCC/C=C\CCCCCCCC(=O)NCCC(O)(P(=O)(O)O)P(=O)(O)O"
Reply: < 5.30
